# measurement.description: Stability in human hepatocytes
# Type: in vitro ADME
# experimental.context: Diastereoisomer A (upfield shift in 31P NMR), 5 μM, 1 million cells/ml, 37° C., human hepatocytes, read-out: t1/2, Human Hepatocytes, Diastereoisomer A (converted)
result.type: half-life at 5 µM (min)
Give just the number in min; leave the unit off.

Requested read-out: half-life at 5 µM. Entry: COC(=O)CCNC(=O)[C@@H]1OP(=O)(Oc2ccc(F)cc2)OCC1(C)C (some centres unmarked) [2-118]
33

COC(=O)CCNC(=O)[C@@H]1O[P@@](=O)(Oc2ccc(C(F)(F)F)cc2)OCC1(C)C [2-119] ?
30.6

###

# measurement.description: Stability in human hepatocytes
# Format: in vitro ADME
# experimental.context: t1/2, Human Hepatocytes, Diastereoisomer A
result.type: half-life at 5 µM (min)
Give just the number in min; leave the unit off.

Requested read-out: half-life at 5 µM. Entry: CCc1cc(C(=O)OCO[P@@]2(=O)OCC(C)(C)[C@H](C(=O)NCCC(=O)OC)O2)n(C)n1 (single isomer, unassigned) [Compound No. 2-127]
17.4

COC(=O)CCNC(=O)[C@@H]1OP(=O)(N[C@H](C(=O)OCc2ccccc2)C(C)C)OCC1(C)C (stereo partly shown) [compound 13] ?
31.8

COC(=O)[C@H](C)NP1(=O)OCC(C)(C)[C@H](C(=O)NCCC(=O)OCc2cc(C)on2)O1 (stereo partly shown) [compound 21] ?
70.8

CC(C)(C)C(=O)OCO[P@@]1(=O)OCC(C)(C)[C@H](C(=O)NCCC(=O)O)O1 [Compound No. 91] ?
67.2

###

For each record, write down the corresponding half-life.
# measurement.description: Stability in human hepatocytes
# Assay type: in vitro ADME
# experimental.context: Diastereoisomer B, 5 μM, 1 million cells/ml, 37° C., human hepatocytes, read-out: t1/2, Human Hepatocytes, Diastereoisomer B (converted)
Give just the number in h; leave the unit off.

Requested read-out: half-life. Entry: COC(=O)CCNC(=O)[C@@H]1OP(=O)(N[C@@H](C)C(=O)OC)OCC1(C)C (stereo partly shown) [compound 5]
1

COC(=O)CCNC(=O)[C@@H]1OP(=O)(N[C@H](C(=O)OC)C(C)C)OCC1(C)C (stereo partly shown) [compound 1] ?
1.31

COC(=O)CCNC(=O)[C@@H]1OP(=O)(N[C@H](C)C(=O)OC)OCC1(C)C (stereo partly shown) [compound 16] ?
1.34

###

For each record, write down the corresponding half-life at 5 µM.
# measurement.description: Stability in mouse hepatocytes
# Assay type: in vitro ADME
# experimental.context: Diastereoisomer B, 5 μM, 1 million cells/ml, 37° C., mouse hepatocytes, read-out: t1/2, Mouse Hepatocytes, Diastereoisomer B (converted)
Give just the number in min; leave the unit off.

Requested read-out: half-life at 5 µM. Entry: COC(=O)CCNC(=O)[C@@H]1OP(=O)(N[C@@H](C)C(=O)OC)OCC1(C)C (stereo partly shown)
18

COC(=O)CCNC(=O)[C@@H]1OP(=O)(N[C@H](C)C(=O)OC)OCC1(C)C (stereo partly shown) ?
15.6

###

# measurement.description: Stability in human hepatocytes
# Format: in vitro ADME
# experimental.context: t1/2, Human Hepatocytes, Diastereoisomer B
result.type: half-life at 5 µM

Requested read-out: half-life at 5 µM. Entry: CCc1cc(C(=O)OCOP2(=O)OCC(C)(C)[C@H](C(=O)NCCC(=O)OC)O2)n(C)n1 (stereo partly shown)
< 15 min

CC(C)(C)C(=O)OCO[P@@]1(=O)OCC(C)(C)[C@H](C(=O)NCCC(=O)OCCS(C)(=O)=O)O1 (single isomer, unassigned) ?
19.8 min

COC(=O)CCNC(=O)[C@@H]1OP(=O)(N[C@@H](C)C(=O)OCc2cccnc2)OCC1(C)C (stereo partly shown) ?
191 min

COC(=O)CCNC(=O)[C@@H]1OP(=O)(OCCCOCc2ccccc2)OCC1(C)C (stereo partly shown) ?
< 15 min

COC(=O)CCNC(=O)[C@@H]1OP(=O)(N[C@H](C)C(=O)OCCc2ccccc2)OCC1(C)C (stereo partly shown) ?
< 15 min

COC(=O)CCNC(=O)[C@@H]1OP(=O)(N[C@@H](Cc2ccccc2)C(=O)OCc2ccccc2)OCC1(C)C (stereo partly shown) ?
< 15 min

CCC(CC)C(=O)OCOP1(=O)OCC(C)(C)[C@H](C(=O)NCCC(=O)OC)O1 (stereo partly shown) ?
< 15 min

###

For each record, write down the corresponding Papp A→B at 60 min.
# measurement.description: Permeability in porcine brain endothelial cell blood-brain barrier model
# Format: in vitro ADME
# experimental.context: pig (endothelial cells), co-cultured with rat astrocytes, pH 7.4, PBECs/As blood-brain barrier model, luminal to basal; Diastereoisomer A; read-out: Papp Diastereoisomer A
Give just the number in ×10⁻⁶ cm/s; leave the unit off.

Requested read-out: Papp A→B at 60 min. Entry: CC1(C)COP(=O)(O)O[C@H]1C(=O)NCCC(=O)O
0.58

CCc1cc(C(=O)OCO[P@@]2(=O)OCC(C)(C)[C@H](C(=O)NCCC(=O)OC)O2)n(C)n1 (single isomer, unassigned) ?
11.8

COC(=O)CCNC(=O)[C@@H]1OP(=O)(OCOC(=O)C(C)(C)C)OCC1(C)C (stereo partly shown) ?
20.3

COC(=O)CCNC(=O)[C@@H]1OP(=O)(N[C@@H](Cc2ccccc2)C(=O)OCc2ccccc2)OCC1(C)C (stereo partly shown) ?
10.1

CC(C)OC(=O)OCO[P@@]1(=O)OCC(C)(C)[C@H](C(=O)NCCC(=O)O)O1 ?
1.84

COC(=O)CCNC(=O)[C@@H]1OP(=O)(N[C@@H](C)C(=O)OCc2cc(C)cc(C)c2)OCC1(C)C (stereo partly shown) ?
9.99

COC(=O)CCNC(=O)[C@@H]1O[P@@](=O)(OCC(F)(F)F)OCC1(C)C ?
15.6

COC(=O)CCNC(=O)[C@@H]1O[P@@](=O)(OCc2ccccc2)OCC1(C)C ?
18.7

COC(=O)CCNC(=O)[C@@H]1O[P@@](=O)(NCc2ccccc2)OCC1(C)C ?
4.03

COC(=O)CCNC(=O)[C@@H]1OP(=O)(NCCN2CCCC2)OCC1(C)C (stereo partly shown) ?
5.26

COC(=O)CCNC(=O)[C@@H]1OP(=O)(OCOC(=O)c2ccccc2)OCC1(C)C (stereo partly shown) ?
16

CCc1cc(C(=O)OCOP2(=O)OCC(C)(C)[C@H](C(=O)NCCC(=O)OC)O2)n(C)n1 (stereo partly shown) ?
10.1

COC(=O)CCNC(=O)[C@@H]1OP(=O)(OCOC(=O)OC(C)C)OCC1(C)C (stereo partly shown) ?
22.8

COC(=O)CCNC(=O)[C@@H]1OP(=O)(N[C@@H](C)C(=O)OCc2ccccc2)OCC1(C)C (stereo partly shown) ?
3.52

COC(=O)CCNC(=O)[C@@H]1OP(=O)(NCCC(=O)OCc2ccccc2)OCC1(C)C (stereo partly shown) ?
1.95

COC(=O)CCNC(=O)[C@@H]1OP(=O)(N[C@@H](C)C(=O)OCc2cccnc2)OCC1(C)C (stereo partly shown) ?
0.54

###

# measurement.description: Stability in human hepatocytes
# Type: in vitro ADME
# experimental.context: Diastereoisomer B, 5 μM, 1 million cells/ml, 37° C., human hepatocytes, read-out: t1/2, Human Hepatocytes, Diastereoisomer B (converted)
result.type: half-life at 5 µM (min)
Give just the number in min; leave the unit off.

Requested read-out: half-life at 5 µM. Entry: COC(=O)CCNC(=O)[C@@H]1OP(=O)(Oc2ccc(F)cc2)OCC1(C)C (stereo partly shown) [2-118]
36

###

# measurement.description: Stability in human plasma
# Assay type: in vitro ADME
# experimental.context: human, plasma, Diastereoisomer A (upfield shift in 31P NMR), 37° C., read-out: t1/2, Human Plasma, Diastereoisomer A (converted)
result.type: half-life at 3 µM

Requested read-out: half-life at 3 µM. Entry: COC(=O)CCNC(=O)[C@@H]1O[P@@](=O)(OCOC(=O)C(C)(C)C)OCC1(C)C (single isomer, unassigned)
45.6 min

Cc1cc(COC(=O)CCNC(=O)[C@@H]2OP(=O)(OCOC(=O)C(C)(C)C)OCC2(C)C)no1 (single isomer, unassigned) ?
46.8 min

CC(C)(C)C(=O)OCO[P@@]1(=O)OCC(C)(C)[C@H](C(=O)NCCC(=O)OC2CCN(Cc3ccccc3)C2)O1 (stereo partly drawn) ?
> 60 min

COC(=O)CCNC(=O)[C@@H]1OP(=O)(N[C@@H](C)C(=O)OCCc2ccccc2)OCC1(C)C (stereo in doubt) [compound 48] ?
> 60 min

COC(=O)CCNC(=O)[C@@H]1OP(=O)(OCOC(=O)c2ccncc2)OCC1(C)C (stereo partly drawn) ?
< 9.6 min

COC(=O)CCNC(=O)[C@@H]1OP(=O)(OCOC(=O)c2cncs2)OCC1(C)C (stereo partly drawn) ?
< 9.6 min

COC(=O)[C@H](C)NP1(=O)OCC(C)(C)[C@H](C(=O)NCCC(=O)OCc2ccncc2)O1 (stereo partly drawn) ?
44.4 min

COC(=O)CCNC(=O)[C@@H]1OP(=O)(N[C@@H](Cc2ccc(OC(C)(C)C)cc2)C(=O)OC(C)(C)C)OCC1(C)C (stereo partly drawn) ?
> 60 min

C[C@H](NP1(=O)OCC(C)(C)[C@H](C(=O)NCCC(=O)OCCN2CCCC2)O1)C(=O)OCCc1ccccc1 (stereo partly drawn) ?
> 60 min

COC(=O)CCNC(=O)[C@@H]1O[P@@](=O)(N[C@@H](C)C(=O)OCCc2ccccn2)OCC1(C)C ?
> 60 min

CC(C)[C@H](N[P@]1(=O)OCC(C)(C)[C@H](C(=O)NCCC(=O)OC(C)(C)C)O1)C(=O)OCCc1ccccc1 ?
> 60 min

COC(=O)[C@H](C)NP1(=O)OCC(C)(C)[C@H](C(=O)NCCC(=O)OCCN2CCCC2)O1 (stereo partly drawn) ?
27 min

COC(=O)CCNC(=O)[C@@H]1OP(=O)(OCCCN2CCOCC2)OCC1(C)C (stereo partly drawn) ?
> 60 min

COC(=O)CCNC(=O)[C@@H]1OP(=O)(N[C@@H](Cc2cncs2)C(=O)OCc2ccccc2)OCC1(C)C (stereo partly drawn) ?
> 60 min

COC(=O)CCNC(=O)[C@@H]1OP(=O)(N[C@H](C)C(=O)OCc2cnccn2)OCC1(C)C (stereo in doubt) ?
> 60 min

CC(C)(C)OC(=O)CCNC(=O)[C@@H]1OP(=O)(OCOC(=O)C(C)(C)C)OCC1(C)C (stereo partly drawn) ?
> 60 min

COC(=O)CCNC(=O)[C@@H]1OP(=O)(OC(C)OC(=O)c2ccccc2)OCC1(C)C (stereo partly drawn) ?
> 60 min

CCOCCCOC(=O)CCNC(=O)[C@@H]1O[P@@](=O)(OCOC(=O)C(C)(C)C)OCC1(C)C (single isomer, unassigned) ?
16.8 min

CCC(CC)C(=O)OCOP1(=O)OCC(C)(C)[C@H](C(=O)NCCC(=O)OC)O1 (stereo partly drawn) ?
> 60 min

COC(=O)CCNC(=O)[C@@H]1OP(=O)(OCOC(=O)[C@H](CC(C)C)NC(C)=O)OCC1(C)C (stereo partly drawn) ?
< 13.8 min

CC(C)(C)C(=O)OCO[P@@]1(=O)OCC(C)(C)[C@H](C(=O)NCCC(=O)OCCc2ccccn2)O1 (single isomer, unassigned) ?
28.8 min

COC(=O)CCNC(=O)[C@@H]1OP(=O)(N[C@@H](C)C(=O)OCCCc2ccccc2)OCC1(C)C (stereo in doubt) ?
57 min

COC(=O)CCNC(=O)[C@@H]1O[P@@](=O)(N[C@@H](C)C(=O)OC2Cc3ccccc3C2)OCC1(C)C ?
> 60 min

COC(=O)CCNC(=O)[C@@H]1OP(=O)(N[C@@H](Cc2cccnc2)C(=O)OC)OCC1(C)C (stereo partly drawn) ?
> 60 min

CC(C)(C)C(=O)OCO[P@@]1(=O)OCC(C)(C)[C@H](C(=O)NCCC(=O)OCC2CCC(=O)N2)O1 (stereo partly drawn) ?
33.6 min

CC(C)(C)C(=O)OCO[P@@]1(=O)OCC(C)(C)[C@H](C(=O)NCCC(=O)OCCS(C)(=O)=O)O1 (single isomer, unassigned) ?
> 60 min

CC1(C)COP(=O)(O)O[C@H]1C(=O)NCCC(=O)O ?
49.8 min
